- test_details: melting temperature; fluorescence melt of hairpins on a sequencing array, two-state fit, raised by 9.35 °C to match UV melts
- experimental_context: sodium 0.088 M
value_kind: Tm (°C)
Give bare numbers, in °C.

sequence_record	Tm [°C]
GTCTTAGCGAAAGCTGAC (((..(((....))))))	39

Hi there! I need Tm for each item below, if you can.
1. GGAATTGGAAACAATTTC (.(((((....))))).)
2. GCGGCACTCCGC ((((....))))

1: 39.5; 2: 57.5

---

- test_details: folding enthalpy; higher = less favourable; fluorescence melt of hairpins on a sequencing array, two-state fit
- experimental_context: sodium 0.088 M
value_kind: folding enthalpy (kJ/mol)
Numbers only, in kJ/mol.

sequence_record	folding enthalpy (kJ/mol)
GATAGAGAAATCTATC ((((((....))))))	-89.8
GATCGTTATACGATC ((((((...))))))	-152
GTGTTGGGAAACCAACAC (((((((....)))))))	-180

--- query ---
Param item = GCGGCGCCGAAAGGCCGC (((..(((....)))))) ; retrieve measured folding enthalpy.
-59.8

---

- test_details: folding enthalpy; higher = less favourable; fluorescence melt of hairpins on a sequencing array, two-state fit
- experimental_context: sodium 0.088 M
value_kind: folding enthalpy (kcal/mol)
Answers are plain numbers, in kcal/mol.

Reference set (5 entries):
sequence_record	unit_abbrev	folding enthalpy
GCAGTGGGAAACCACCGC ((.((((....)))).))	kcal/mol	-23.4
GCGATCCATCGC ((((....))))	kcal/mol	-27.3
TCTAGGAAACTAGA (((((....)))))	kcal/mol	-10.5
GTCTGCGAAAGCACGGAC ((((((....)))..)))	kcal/mol	-15.2
GGTTGGGGAAACCCAATC (.(((((....))))).)	kcal/mol	-26.2

Hi there! I need folding enthalpy for each item below, if you can.
1. GCATGCGAAAGCACCTGC ((((((....)))..)))
2. GAATACGAAAGTAGCTTC ((((((....)))..)))
3. GCCTGCGAAAGCACGGC ((((((....))).)))
4. GGAATCGAAAGATATTCC ((((((....)))..)))
5. GAAAGCGAAAGCTCTTC ((((((....))).)))

1. -10.9
2. -16.4
3. -29.7
4. -16
5. -17.9

---

- test_details: melting temperature; fluorescence melt of hairpins on a sequencing array, two-state fit, raised by 9.35 °C to match UV melts
- experimental_context: sodium 0.088 M
Provide the reported Tm of each item.

Reference set (10 entries):
sequence_record	Tm
GTAAGCCGAAAGGCCTAC (((.(((....))).)))	39.4 °C
GATCGACAAATCGATC ((((((....))))))	48.1 °C
ATCTGGAAACAGAT (((((....)))))	39.1 °C
GCGATTCATCGC ((((....))))	58.3 °C
CGCATCGGAAACGAAGCG (((.(((....))).)))	51.7 °C
GATCAGGATTCTGATC ((((((....))))))	49.8 °C
GCGAGATGTCGC ((((....))))	49.4 °C
GTCGATCGAAAGATAGAC (((.(((....))).)))	50.4 °C
CGTCCGGAAACGGTAACG ((((((....)))..)))	37.8 °C
CGTACGGAAACGTTTACG ((((((....)))..)))	37.3 °C

Hi there! I need Tm for each item below, if you can.
1. GATCCAGTGATGGATC ((((((....))))))
2. GTGCCCCGAAAGGGCCAC (((.(((....))).)))
3. GAGGCCGAAAGGCCACTC ((((((....)))..)))
4. GTTCCTCGAAAGAGAAAC (((.(((....))).)))

1. 56.6 °C
2. 51.3 °C
3. 60.4 °C
4. 38.1 °C

---

- test_details: melting temperature; fluorescence melt of hairpins on a sequencing array, two-state fit, raised by 9.35 °C to match UV melts
- experimental_context: sodium 0.088 M
value_kind: Tm (°C)
Numbers only, in °C.

sequence_record	measured
GCACGCCCGAAAGGGTGC (((..(((....))))))	49.9

Hi there! I need Tm for each item below, if you can.
1. GCGTACCTACGC ((((....))))
2. GACTAACGAAAGTTCGTC (((.(((....))).)))
3. GACAGTGGAAACACCATC ((..(((....)))..))
4. GGGACACCGAAAGGTCCC (((..(((....))))))
5. CAACTGAAAAGTTG (((((....)))))
6. GCTGTCGAAAGACAAAGC ((((((....)))..)))
7. GAGACGAAAGTCTC (((((....)))))

52.8
42.5
19.9
51.4
46.2
48.9
67.1

---

- test_details: folding enthalpy; higher = less favourable; fluorescence melt of hairpins on a sequencing array, two-state fit
- experimental_context: sodium 0.088 M
value_kind: folding enthalpy (kcal/mol)
Answers are plain numbers, in kcal/mol.

Reference set (5 entries):
sequence_record	folding enthalpy / kcal/mol
GCGGTAAGCCGC ((((....))))	-23.3
GTCACTCGAAAGAGGAC (((.(((....))))))	-23.9
GGGGAGGCGAAAGCCCCC (((..(((....))))))	-14.2
GCAGACGCGAAAGCGTGC (((..(((....))))))	-11.8
TTACGGAAACGTAA (((((....)))))	-14.8

Hi there! I need folding enthalpy for each item below, if you can.
1. GCTGCCACGAAAGTGAGC (((..(((....))))))
2. CGAGTTCGGAAACGATCG (((..(((....))))))

1: -13.1; 2: -10.2

Hi there! I need folding enthalpy for each item below, if you can.
1. GGCATACGAAAGTAGGCC (((.(((....))).)))
2. TTGCAGAAATGCAA (((((....)))))
3. GCTACCCGAAAGGGCAGC (((.(((....))).)))
4. GATCCTTGTCAGGATC ((((((....))))))

1: -47.1; 2: -20.8; 3: -32.9; 4: -37.6

---

- test_details: folding enthalpy; higher = less favourable; fluorescence melt of hairpins on a sequencing array, two-state fit
- experimental_context: sodium 0.088 M
value_kind: folding enthalpy

sequence_record	folding enthalpy
GAATCCGAAAGGATTTC ((((((....))).)))	-13.8 kcal/mol
GGGCTTGCGAAAGCACCC (((..(((....))))))	-15.8 kcal/mol
GTTGTGAAAACAAC (((((....)))))	-29.6 kcal/mol

Hi there! I need folding enthalpy for each item below, if you can.
1. GATCTTGTAAAAGATC ((((((....))))))
2. GCAGACGGAAACGTCCAC (..((((....))))..)

1. -41.1 kcal/mol
2. -9.46 kcal/mol

---

- test_details: melting temperature; fluorescence melt of hairpins on a sequencing array, two-state fit, raised by 9.35 °C to match UV melts
- experimental_context: sodium 0.088 M
Classify by measured Tm: YES if it is equal to or exceeds 40 °C, NO if it is smaller.

sequence_record	label_class
GGACAACGAAAGTTTCC (((.(((....))))))	NO
GTATCGCGAAAGCGCTAC (((.(((....))).)))	YES
GGTCGCGAAAGCGCTACC ((((((....)))..)))	NO
GCAACAGGAAACTGTCGC ((.((((....)))).))	YES
GGAGACGAAAGTCATTCC ((((((....)))..)))	NO

Dear colleague, could you confirm whether GTCGCTTCGAAAGAAGAC (((..(((....)))))) has Tm at or above 40 °C?
NO

Dear colleague, could you confirm whether GACTGCGAAAGCAAGTC ((((((....))).))) has Tm at or above 40 °C?
YES

Dear colleague, could you confirm whether GAAGTCGGAAACGACTTC (((((((....))))))) has Tm at or above 40 °C?
YES

---

- test_details: melting temperature; fluorescence melt of hairpins on a sequencing array, two-state fit, raised by 9.35 °C to match UV melts
- experimental_context: sodium 0.088 M
Provide the reported Tm of each item.
Numbers only, in °C.

Reference set (5 entries):
sequence_record	unit_abbrev	Tm
GATCAGGGACTGATC ((((((...))))))	°C	59.6
GGCCGGGGAAACTCGGCC (((((.(....).)))))	°C	68.4
GTCACCGAAAGGTCAGAC ((((((....)))..)))	°C	32.2
GGATAGAAATATCC (((((....)))))	°C	36
GTGGAGGGAAACTTCCAC (((((.(....).)))))	°C	47.3

Hi there! I need Tm for each item below, if you can.
1. GGTAACGAAAGTTCAACC ((((((....)))..)))
2. GCGATATTTCGC ((((....))))
3. GAACTGACGAAAGTCTTC (((..(((....))))))
4. GCACAGCGAAAGCTCGGC ((..(((....)))..))
5. GCGCACGAAAGTGTCGC ((((((....))).)))

1: 27.7; 2: 50.1; 3: 23.7; 4: 38.4; 5: 64.2

Hi there! I need Tm for each item below, if you can.
1. GTCCTCGGAAACGGGGAC ((((.((....)).))))
2. GTTATCGGAAACGACAAC (((.(((....))).)))
3. GAAGTAGGAAACTACTCC (.(((((....))))).)
4. GAGATGACGAAAGTCCTC (((..(((....))))))

55.7
36.4
32.5
30

Hi there! I need Tm for each item below, if you can.
1. GATCTTCGCGAAGATC ((((((....))))))
2. GATCTGTTTCAGATC ((((((...))))))
3. GATCTGCTACCAGATC ((((((....))))))
4. GAGCATGGAAACATGTTC ((.((((....)))).))

[55.3, 50.5, 48.8, 42.8]

Hi there! I need Tm for each item below, if you can.
1. GTAGCAGGAAACTACTAC ((((.((....)).))))
2. GATCGGGTCTCCGATC ((((((....))))))

35
59.1
